# testedSystem: Gingipain R
# experimentalDetails: cell-based or functional assay
Square brackets hold non-standard residues; d marks the D form. * marks the point of attachment. Hydrocinnamoyl = O=C(CCc1ccccc1)*; CH:CH‑COOEt = CCOC(=O)/C=C/*; AOrn = not defined here
endpoint: k2 (M⁻¹ s⁻¹)
One number for each entry, in M⁻¹ s⁻¹.

Some solved cases for reference:
LK (modifications not checked) [PhPr-Leu-ALys-CH═CH-CON(Me)CH2Ph] ... 79
Hydrocinnamoyl-Leu-[AOrn]-{CH:CH‑CON(CH2Ph)2} (reading uncertain) [PhPr-Leu-AOrn-CH═CH-CON(CH2Ph)2] ... 541
LK (modifications not checked) [PhPr-Leu-ALys-CH═CH-CON(4H-quinoline)] ... 73
LK (modifications not checked) [PhPr-Leu-ALys-CH═CH-CON(Me)CH2-1-naphthyl] ... 576

Respectfully, I request k2 for each entry included below.
1. LK (modifications not checked) [PhPr-Leu-ALys-CH═CH-CON(Bzl)CH2-2-naphthyl]
2. Hydrocinnamoyl-Leu-[AOrn]-{CH:CH‑COOEt} (reading uncertain; also: printed as PhPr-Leu-AOrn-CH═CH-COOEt) [PhPr-Leu-AOrn-CH═CH-COOEt]
3. LK (modifications not checked) [PhPr-Leu-ALys-CH═CH-CON(Bzl)-p-CH2C6H4F]
4. LK (modifications not checked) [PhPr-Leu-ALys-CH═CH-CON(CH2-1-naphthyl2]
5. LK (modifications not checked) [PhPr-Leu-ALys-CH═CH-COOCH2Ph]
6. LK (modifications not checked) [PhPr-Leu-ALys-CH═CH-CONHCH2Ph]

[98, 32, 75, 214, 632, 20]

Respectfully, I request k2 for each entry included below.
1. LK (modifications not checked) [PhPr-Leu-ALys-CH═CH-COOEt]
2. Hydrocinnamoyl-Leu-[AOrn]-{CH:CH‑CONHCH2Ph} (reading uncertain) [PhPr-Leu-AOrn-CH═CH-CONHCH2Ph]
3. LR (modifications not checked) [PhPr-Leu-AArg-CH═CH-CONHCH2Ph]
4. Hydrocinnamoyl-Ala-[AOrn]-{CH:CH‑COOEt} (reading uncertain) [PhPr-Ala-AOrn-CH═CH-COOEt]
5. LR (modifications not checked) [PhPr-Leu-AArg-CH═CH-CON(CH2Ph)2]
6. LK (modifications not checked) [PhPr-Leu-ALys-CH═CH-CON(CH2Ph)2]

289
71
555000
18
804000
65
